- measurement.protocol: Solubility in 7 aqueous pH buffers and bio-relevant fluids at 37° C. (HPLC of supernatant; residual solids by XRPD)
- Format: physicochemical
- test.parameters: ES4, pH 7.4 phosphate buffer (50 mM), 37° C., 2 h
- Protocol: 20 mg of the free base Form A of Compound I was weighed into a 20 mL glass vial. Amounts of the salts equivalent to 20 mg anhydrous free base were weighed into a glass vial. 10 mL of solubility medium was added. The resulting suspensions/solutions were stirred at 37° C. at 400 rpm and sampled at 2 hours and at 24 hours, respectively. […] Supernatants were analyzed by HPLC and pH meter for solubility and pH value, respectively. […] Residual solids after the solubility test were analyzed by XRPD.
parameter.measured: pH of supernatant, solubility for 2 h (pH)

[
  {
    "compound": "C=CC(=O)NCC(=O)N1CCN(Cc2cc3c(N4CCOCC4)nc(-c4cnc(NC(=O)OC)cc4C(F)(F)F)nn3c2)CC1.O=S(=O)(O)c1ccccc1",
    "result": "(7.3)"
  },
  {
    "compound": "C=CC(=O)NCC(=O)N1CCN(Cc2cc3c(N4CCOCC4)nc(-c4cnc(NC(=O)OC)cc4C(F)(F)F)nn3c2)CC1.O=C(O)/C=C\\C(=O)O [Form B* of Compound I maleate salt]",
    "result": "(7.3)"
  },
  {
    "compound": "C=CC(=O)NCC(=O)N1CCN(Cc2cc3c(N4CCOCC4)nc(-c4cnc(NC(=O)OC)cc4C(F)(F)F)nn3c2)CC1.O=P(O)(O)O [Form A* of Compound I phosphate salt]",
    "result": "(7.2)"
  },
  {
    "compound": "C=CC(=O)NCC(=O)N1CCN(Cc2cc3c(N4CCOCC4)nc(-c4cnc(NC(=O)OC)cc4C(F)(F)F)nn3c2)CC1 [Form A of Compound I]",
    "result": "(7.5)"
  }
]

The values you see were collected from patent US20250197408A1.
